# TARGET DESC: LC3B T50A (human, UniProt Q9GZQ8 1-120, T50A)
# METHOD SUMMARY: ITC; MicroCal iTC200, 25 °C; proteins 0.25 mmol/L and peptides 3 mmol/L, dialyzed against buffer B (20 mmol/L Tris-HCl, 200 mmol/L NaCl, 1 mmol/L EDTA, pH 8.0); single binding site model
# ASSAY SETUP: both partners purified
METRIC: Kd (µM)
Respond with the bare value in µM.

Exercise: Quick one: give measured Kd for DYESDDDSYEVLDLTE (FUNDC1 (Fun14 domain-containing protein 1), LIR and flanking residues 10-25; also called unphosphorylated FUNDC1 peptide; FUNDC1 peptide; source: synthetic peptide (GL Biochem, Shanghai)) [FUNDC1 LIR peptide 10-25, unphosphorylated]
Key: 2.81
